Cited source for all entries: PubChem BioAssay (NCI)

Items are presented alongside their recorded growth.
System: HCT-116 colon
Test protocol: NCI-60 one-dose screen, 48 h (100 = growth as untreated, 0 = no growth, -100 = all killed)
Applied conditions: 10 µM
Compounds without any hit were thinned out: in the full panel of roughly 83,000, 20% have a hit.
Outcome measure: growth (%)

>>> numeric_readout("N#CCCN(CCCN1CCOCC1)CN1C(=O)c2ccccc2C1=O")
109
>>> numeric_readout("CCS(=O)(=O)CCCl")
98.7
>>> numeric_readout("COc1nc(N)nc2c1ncn2C1OC(CO)CC1O (stereo unspecified)")
98.8
>>> numeric_readout("O=C(O)CCCC(=O)O")
100
>>> numeric_readout("COc1cc2cc(c1Cl)N(C)C(=O)C[C@H](OC(=O)[C@H](C)N(C)C(C)=O)[C@]1(C)O[C@H]1[C@H](C)[C@@H]1C[C@@](O)(NC(=O)O1)[C@H](OC)C=C/C=C(\\C)C2")
-18.6
>>> numeric_readout("CN(C)c1nc2c([nH]1)c(=O)n(C)c(=O)n2C")
97
>>> numeric_readout("CC(C)OC(C(=O)O)c1ccccc1 (stereo unspecified)")
101
>>> numeric_readout("CC1CCCCN1C(=S)Nc1ccc(S(=O)(=O)N2CCCCC2)cc1 (stereo unspecified)")
91.5
>>> numeric_readout("Cc1c(C(=O)O)c(=O)n(-c2ccccc2)n1C")
113
>>> numeric_readout("OCC(O)C(O)C(O)C(O)/C=N/O (stereo unspecified)")
91.3
>>> numeric_readout("COc1cc(/C=C(\\C#N)C(=O)c2ccccc2)ccc1OCc1ccccc1")
104
